Test system: NCI-H522 lung
Test: NCI tumour cell line growth inhibition, 48 h
Each record here notes measured TGI.

Take a look at these entries with their results.
[[record]]
compound = "S=c1c2[nH]cnc2ncn1CCSC1=NC=NC2=NC=NC21 (centres undefined)"
observed_result = "> 100 µM"

[[record]]
compound = "CSc1nc2nn(Cc3ccccc3)cc2c(=O)[nH]1"
observed_result = "> 100 µM"

[[record]]
compound = "C=CCC1(Sc2ccccn2)Sc2ccc3ccccc3c2-c2c(ccc3ccccc23)S1"
observed_result = "> 100 µM"


Data request: Name the recorded TGI for Cc1cc2nc(C=C(C(F)(F)F)C(F)(F)F)sc2cc1C .
Data returned: 1.01 µM

---

Test system: COLO 205 colon
Test: NCI tumour cell line growth inhibition, 48 h; in the data active = GI50 below about 0.43 µM; inactive = the rest
Entry note: the call must match one of active, inactive

See these solved cases before continuing.
[[record]]
compound = "COC1=C(C)C(=O)c2c(c(CCCl)c3n2CCC3OC(C)=O)C1=O (stereo not drawn)"
label_value = "active"

[[record]]
compound = "Cc1cc(N2CCCCC2)nc(NC2CCCC(Nc3ccnc4cc(Cl)ccc34)C2)n1 (stereo not drawn)"
label_value = "inactive"

[[record]]
compound = "CC(C)[C@@](O)(c1ccc2cc(OC(F)F)c(OC(F)F)cc2c1)c1cn[nH]n1"
label_value = "inactive"

[[record]]
compound = "COC(=O)[C@]12CC[C@@H](C)[C@H](C)[C@@H]1C1=CC[C@@H]3[C@@]4(C)C[C@@H](OC(=O)/C=C/c5ccccc5)[C@H](O)[C@@](C)(CO)[C@@H]4[C@H](O)C[C@@]3(C)[C@]1(C)CC2"
label_value = "inactive"

[[record]]
compound = "N#CC1=C(N)NC(=S)NC12Nc1ccccc1S2 (stereo not drawn)"
label_value = "inactive"


Data request: So what was the verdict on Cc1cnc2oc3ccc(O)cc3c2c1-c1ccccc1 in this test?
Data returned: inactive

Data request: So what was the verdict on NC1CCCCC1N.O=C1C=C/C(=C(/c2ccc(O)c(Br)c2)c2ccccc2S(=O)(=O)[O-])C=C1Br.O=C1C=C/C(=C(/c2ccc(O)c(Br)c2)c2ccccc2S(=O)(=O)[O-])C=C1Br.[Pt+4] in this test?
Data returned: inactive

Data request: So what was the verdict on CC1(C)N=C(N)N=C(N)N1c1ccc(OCCCNC(=O)Nc2cccc(S(=O)(=O)F)c2)c(Cl)c1 in this test?
Data returned: inactive

Data request: So what was the verdict on COc1cc(/C=C2\CCC/C(=C\c3ccc(O)c(OC)c3)C2=O)ccc1O in this test?
Data returned: inactive

Data request: So what was the verdict on COc1cc([N+](=O)[O-])c(OC)cc1-c1nc2sc(C)cn2c1/C(N)=N/C(=N)N in this test?
Data returned: inactive

Data request: So what was the verdict on O=c1cnnc(N/N=C/c2ccccc2O)[nH]1 in this test?
Data returned: active

Data request: So what was the verdict on COCCOC1=CC(=O)c2c(O)ccc(O)c2C1=O in this test?
Data returned: active

Data request: So what was the verdict on CCOC(=O)C1=C(C)NC(=O)NC1CN1C(=O)c2ccccc2C1=O (stereo not drawn) in this test?
Data returned: inactive

---

Each record here notes measured TGI.
System: PC-3 prostate
Assay: NCI tumour cell line growth inhibition, 48 h

Take a look at these entries with their results.
[[record]]
molecule = "C/C(=N\\OCC(O)CNCCSCc1ccccc1)c1ccccc1Cl (stereo unspecified)"
parameter = "TGI"
observed_result = "36.2 µM"

[[record]]
molecule = "N#CC1=C2SCCN2C(=O)C(C#N)C12CCCCC2 (stereo unspecified)"
parameter = "TGI"
observed_result = "> 100 µM"

[[record]]
molecule = "CCOC(=O)c1ccc(C(=O)n2ccnc2)[nH]1"
parameter = "TGI"
observed_result = "> 100 µM"

[[record]]
molecule = "C#CC(=O)Nc1cccc2c1cc(C)n2-c1nc2c(c(NCc3ccccc3)n1)CCCC2"
parameter = "TGI"
observed_result = "0.351 µM"

[[record]]
molecule = "O=[N+]([O-])c1cccc(-c2ncc3c(n2)-c2ccccc2C3)c1"
parameter = "TGI"
observed_result = "> 100 µM"


Data request: Name the recorded TGI for CSc1nn(C)cc2ncnc1-2 .
Data returned: > 100 µM

Data request: Name the recorded TGI for C=C(C)[C@@H]1CCC2=C[C@H](C/C(C)=C\C3=CC(C)=C(O3)[C@H]1O)OC2=O .
Data returned: > 100 µM

Data request: Name the recorded TGI for CCC/C(Cl)=N/OC(=O)Nc1cc(C(F)(F)F)ccc1OC .
Data returned: 29.7 µM

Data request: Name the recorded TGI for C/C=C(/C)C(=O)O[C@H]1[C@H]2[C@@H]([C@@H](OC(C)=O)[C@H](C)C(=O)[C@@]34C[C@@H](C)C(=O)[C@]3(/C=C(\C)[C@H]1OC(C)=O)O4)C2(C)C .
Data returned: 15.8 µM

Data request: Name the recorded TGI for N#CC(C#N)=C1CCOc2ccc(F)cc21 .
Data returned: 26.8 µM

Data origin: PubChem BioAssay (NCI)
